Provenance of the data: patent US20240294551A1

molecular target: GDP-bound KRAS protein (aa 1-169), containing both G12D and C118A amino acid substitutions (Homo sapiens (Human), UniProt P01116, C118A/G12D); test: KRAS G12D Coupled Nucleotide Exchange Assay; assay type: biochemical; settings: read-out: KRAS G12D Coupled Exchange IC50
Sequence (P01116 other isoform, or with tags, fused parts or gaps G12D/C118A): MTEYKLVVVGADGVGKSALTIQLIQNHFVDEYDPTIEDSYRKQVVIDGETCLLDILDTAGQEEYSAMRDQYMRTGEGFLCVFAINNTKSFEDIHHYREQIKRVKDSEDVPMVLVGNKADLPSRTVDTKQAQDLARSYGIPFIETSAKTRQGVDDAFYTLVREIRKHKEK
IC50 values by entry
Property Label: IC50 (nM)

Compound	Value Observed
Cn1ncc2cc(Cl)c3c(c21)-c1ncc2c(nc(OC[C@@]45CCCN4C[C@H](F)C5)nc2c1F)N1CCOC[C@H](C1)OC(=O)OCCC3 [Example 335]	9
O=C1NCCCc2c(Cl)cc3[nH]ncc3c2-c2ncc3c(nc(OC[C@@]45CCCN4C[C@H](F)C5)nc3c2F)N2CCCC[C@H](C2)O1	2
C[C@@]12CCCN(C1)c1nc(OC[C@@]34CCCN3C[C@H](F)C4)nc3c(F)c(ncc13)-c1cc(O)cc3ccc(F)c(c13)CCCC(=O)N2 [Example 4, bis(2,2,2-trifluoroacetate)]	2
O[C@@H]1C[C@@H]2CN(C1)c1nc(OC[C@@]34CCCN3C[C@H](F)C4)nc3c(F)c(ncc13)-c1c(c(Cl)cc3[nH]ncc13)CCCn1ncc2n1 (single isomer, unassigned) [Example 300]	5
O=C1OCCCc2c(Cl)cc3[nH]ncc3c2-c2ncc3c(nc(O[C@H]4CCOC4)nc3c2F)N2CCOC[C@H](C2)O1	214

* * *

Biological target: GDP-bound KRAS protein (aa 1-169), containing both G12D and C118A amino acid substitutions (Homo sapiens (Human), UniProt P01116, C118A/G12D)
Experiment: KRAS G12D Coupled Nucleotide Exchange Assay
Type: biochemical
Conditions: read-out: KRAS G12D Coupled Exchange IC50
Description: KRAS G12D Coupled Nucleotide Exchange Assay Following compound pre-incubation, purified SOS protein (aa 564-1049) and GTP (Roche 10106399001) were added to the assay wells and incubated for an additional 30 min. […] The assay plates were then read on a PerkinElmer EnVision Multilabel Reader, using AlphaScreen® technology, and data were analyzed using a 4-parameter logistic model to calculate IC50 values.
log10 IC50 values by entry
Property Label: log10 IC50 (log10 of the value in nM)

Compound	Value Observed
CO[C@@H]1C[C@@H](COc2nc3c4cnc(c(F)c4n2)-c2c(c(Cl)cc4[nH]ncc24)CCOC(=O)OC2CC4(CCCN3C4)C2)N(C)C1 (mixture of isomers) [Example 307]	0.30
Fc1c2ncc3c(nc(OC[C@@]45CCCN4C[C@H](F)C5)nc13)N1CCC[C@H](C1)c1cnn(n1)CCCc1c(Cl)cc3[nH]ncc3c1-2 [Example 259]	0.48
C[C@@]12COCCN(C1)c1nc(OCC34CCCN3CCC4)nc3c(F)c(ncc13)-c1c(c(Cl)cc3[nH]ncc13)CCCOC(=O)O2 [Example 209]	0.48
O=C1OCCCc2c(Cl)cc3[nH]ncc3c2-c2ncc3c(nc(OC[C@@]45CCCN4C[C@@H](F)C5)nc3c2F)N2CCOC[C@H](C2)O1 [Example 360]	0.48
O=C1OCCc2c(Cl)cc3[nH]ncc3c2-c2ncc3c(nc(OC[C@@]45CCCN4C[C@@H](F)C5)nc3c2F)N2CCC[C@]3(C2)C[C@H](C3)O1 [Example 350]	0.48
O=C1CCCc2c(F)ccc3cccc(c23)-c2ncc3c(nc(OC[C@@]45CCCN4C[C@H](F)C5)nc3c2F)N2CC[C@@H]3CCN1[C@@H]3C2 [Example 71]	2.08
O=C1N[C@H]2CN(C[C@H]3C[C@H]32)c2nc(OC[C@@]34CCCN3C[C@H](F)C4)nc3c(F)c(ncc23)-c2c(c(Cl)cc3[nH]ncc23)CCC[C@@H]1F [Example 175]	0.60
C[C@@]12COCCN(C1)c1nc(OC[C@@]34CCCN3C[C@@H](F)C4)nc3c(F)c(ncc13)-c1c(c(Cl)cc3[nH]ncc13)CCCOC(=O)O2 [Example 359]	0.60
Cc1cc2[nH]ncc2c2c1CCOC(=O)OC[C@@H]1CCN(C1)c1nc(OC[C@@]34CCCN3C[C@H](F)C4)nc3c(F)c-2ncc13 [Example 219]	1.00
C[C@@]12COCCN(C1)c1nc(OC[C@@]34CCCN3C[C@H](F)C4)nc3c(F)c(ncc13)-c1c3c(cc4[nH]ncc14)CC[C@@H]3CCOC(=O)O2 [Example 366]	2.80
Fc1c2ncc3c(nc(OC[C@@]45CCCN4C[C@H](F)C5)nc13)N1CC(COCCCCc3c(Cl)cc4[nH]ncc4c3-2)CC(F)(F)C1 (stereo partly drawn) [Example 229]	1.08
CN(C)CC1(COc2nc3c4cc(F)c(c(F)c4n2)-c2c(c(Cl)cc4[nH]ncc24)CCCOC(=O)O[C@@H]2COCCN3C2)CC1 [Example 305]	0.48

* * *

test system: MIA PaCa-2 cells; assay: MIA PaCa-2 CTG Assay (CellTiter-Glo cell viability); type: cell-based, human; conditions: Homo sapiens; Mia PaCa-2, 72 h; second value of the cell; read-out: G12D/C/V Cell Proliferation CTG (72 h) Mia PaCa-2
pIC50: −log10 of the molar value. Counter-ions that a name gives are not always drawn.
Property Label: pIC50

Compound	Assay Target	Value Observed
Fc1c2ncc3c(nc(OC[C@@]45CCCN4C[C@H](F)C5)nc13)N1CCC[C@H](C1)c1coc(n1)CCCc1c(Cl)cc3[nH]ncc3c1-2 [Example 246]	MIA PaCa-2 cells	7.09
O=C1OCCc2c(Cl)cc3[nH]ncc3c2-c2ncc3c(nc(OC[C@@]45CCCN4C[C@H](F)C5)nc3c2F)N2CCOCC(CO1)C2 (stereo partly shown) [Example 220]	MIA PaCa-2 cells	7.19
O=C1OCCCc2c(Cl)cc3[nH]ncc3c2-c2ncc3c(nc(OC[C@@]45CCCN4C[C@H](F)C5)nc3c2F)N2CCOC[C@H](C2)O1 [Example 99]	MIA PaCa-2 cells	9.00
C[C@@]12COCCN(C1)c1nc(OC[C@@]34CCCN3C[C@H](F)C4)nc3c(F)c(ncc13)-c1c3c(cc4[nH]ncc14)CC[C@H]3CCOC(=O)O2 [Example 365]	MIA PaCa-2 cells	7.96
CN1CCC[C@H]1COc1nc2c3cnc(c(F)c3n1)-c1c(c(Cl)cc3[nH]ncc13)CCCOC(=O)O[C@@H]1CCCCN2C1 [Example 202]	MIA PaCa-2 cells	6.95
C[C@@]12CCCN(C1)c1nc(OC[C@@]34CCCN3C[C@H](F)C4)nc3c(F)c(ncc13)-c1cc(O)cc3ccc(F)c(c13)CCCC(=O)N2 [Example 4, bis(2,2,2-trifluoroacetate)]	MIA PaCa-2 cells	8.30
O=C1OCCCc2c(Cl)cc3[nH]ncc3c2-c2c(F)cc3c(nc(OC[C@@]45CCCN4C[C@H](F)C5)nc3c2F)N2CCOC[C@H](C2)O1 [Example 187]	MIA PaCa-2 cells	7.82
O=C1CCCCc2c(Cl)cc3[nH]ncc3c2-c2ncc3c(nc(OC[C@@]45CCCN4C[C@H](F)C5)nc3c2F)N2CCCC[C@H](C2)N1 [Example 65, bis(2,2,2-trifluoroacetate)]	MIA PaCa-2 cells	6.80
CN1[C@H](COc2nc3c4cnc(c(F)c4n2)-c2c(c(Cl)cc4[nH]ncc24)CCCOC(=O)O[C@@H]2COCCN3C2)C[C@@H]2C[C@@H]21 [Example 330]	MIA PaCa-2 cells	7.27
CN1CCC[C@H]1COc1nc2c3cnc(c(F)c3n1)-c1c(c(Cl)cc3[nH]ncc13)CCOC(=O)O[C@H]1C[C@]3(CCCN2C3)C1 (single isomer, unassigned) [Example 212]	MIA PaCa-2 cells	7.62
CN(C)CC1(COc2nc3c4cnc(c(F)c4n2)-c2cc(O)cc4ccc(F)c(c24)CCCC(=O)N[C@]2(C)CCCN3C2)CC1 [Example 22, bis(2,2,2-trifluoroacetate)]	MIA PaCa-2 cells	8.00
C[C@@]12CCN(C1)c1nc(OC[C@@]34CCCN3C[C@H](F)C4)nc3c(F)c(ncc13)-c1cc(O)cc3ccc(F)c(c13)CCCC(=O)N2 [Example 10, 2,2,2-trifluoroacetate salt]	MIA PaCa-2 cells	6.80
O=C1OCCCc2c(Cl)cc3[nH]ncc3c2-c2ncc3c(nc(OC[C@@]45CCCN4C[C@H](F)C5)nc3c2F)N2CCC[C@H](C2)O1 [Example 115]	MIA PaCa-2 cells	7.22
O=C1CCCCc2c(Cl)cc3[nH]ncc3c2-c2ncc3c(nc(OC[C@@]45CCCN4C[C@H](F)C5)nc3c2F)N2CCOC[C@H](C2)O1 [Example 84]	MIA PaCa-2 cells	7.70
O=C1OC[C@@H]2C[C@@H]2c2c(Cl)cc3[nH]ncc3c2-c2ncc3c(nc(OC[C@@]45CCCN4C[C@H](F)C5)nc3c2F)N2CCC[C@H](C2)O1 [Example 45, bis(2,2,2-trifluoroacetate)]	MIA PaCa-2 cells	8.00
Cc1cc2[nH]ncc2c2c1CCCC(=O)OCC1CCCN(C1)c1nc(OC[C@@]34CCCN3C[C@H](F)C4)nc3c(F)c-2ncc13 (stereo partly shown) [Example 104]	MIA PaCa-2 cells	6.52
CN1CCC[C@H]1COc1nc2c3cnc(c(F)c3n1)-c1c(c(Cl)cc3[nH]ncc13)CCCOCC(=O)N1CC[C@@H]3CCN2C[C@@H]31 [Example 267]	MIA PaCa-2 cells	6.92
C[C@@]12CCCN(C1)c1nc(OC[C@@]34CCCN3C[C@H](F)C4)nc3c(F)c(ncc13)-c1cc(O)cc3cccc(c13)CCCC(=O)N2 [Example 3, bis(2,2,2-trifluoroacetate)]	MIA PaCa-2 cells	7.12
Cc1cc2[nH]ncc2c2c1[C@H]1C[C@H]1COC(=O)O[C@@H]1CCCN(C1)c1nc(OC[C@@]34CCCN3C[C@H](F)C4)nc3c(F)c-2ncc13 [Example 110]	MIA PaCa-2 cells	7.70
CN1CCC[C@H]1COc1nc2c3cnc(c(F)c3n1)-c1c(c(Cl)cc3[nH]ncc13)CCCOC(=O)O[C@]1(C)COCCN2C1 [Example 181]	MIA PaCa-2 cells	8.00
Fc1c2ncc3c(nc(OC[C@@]45CCCN4C[C@H](F)C5)nc13)N1CCC[C@@](F)(COCCCCc3c(Cl)cc4[nH]ncc4c3-2)C1 [Example 151]	MIA PaCa-2 cells	7.15
CN1CCC[C@H]1COc1nc2c3cnc(c(F)c3n1)-c1c(c(Cl)cc3[nH]ncc13)CCCOC(=O)O[C@]1(CF)COCCN2C1 [Example 338]	MIA PaCa-2 cells	7.46
